experiment: Compound cytotoxicity, XTT-based colorimetric assay; assay type: cell-based; settings: human, uninfected MT2 cells, day 4, XTT
measured metric: CC50 at 4 day

What CC50 at 4 day value was documented for this molecule, Cc1ccnc(-c2ccc3c(=O)n(-c4ccc(Cl)c5c(NS(=O)(=O)C6CC6)nn(CC(F)F)c45)c([C@H](Cc4cc(F)cc(F)c4)NC(=O)Cn4nc(C(F)F)c5c4C(F)(F)[C@@H]4C[C@H]54)nc3c2)n1 ?
> 500 nM

Suppose we examine the molecule O=C(Cn1ccc(C2CC2)n1)N[C@@H](Cc1cc(F)cc(F)c1)c1nc2cc(-c3ccc(F)cc3F)ccc2c(=O)n1-c1ccc(S(=O)(=O)N2CCOCC2)cc1 ; what CC50 at 4 day value has been reported?
> 1000 nM

Below: the item to evaluate.
What does the data say about its CC50 at 4 day? Entry: O=C(Cn1ccc(C2CC2)n1)N[C@@H](Cc1cc(F)cc(F)c1)c1nc2cc(-c3cccnc3)ccc2c(=O)n1-c1ccc(S(=O)(=O)N2CCOCC2)cc1
> 1000 nM
